Tested on: SF-268
ASSAY_OVERVIEW: NCI tumour cell line growth inhibition, 48 h
The source made the active and inactive calls. Cut-off read from the data, not from the text of the source: active = GI50 up to about 1.1 µM and inactive = higher.
API: response.call in active, inactive

Past entries and their recorded results:
COMPOUND: c1ccc([P+](Cc2ccc(C[P+](c3ccccc3)(c3ccccc3)c3ccccc3)cc2)(c2ccccc2)c2ccccc2)cc1
CATEGORY: inactive

COMPOUND: CCN(CC)CC(C)(C)C(=O)/C=C/c1ccc(/C=C/C(=O)C(C)(C)CN(CC)CC)cc1
CATEGORY: active

COMPOUND: COc1ccc(C(C)NNC(=O)c2ccncc2)cc1OC (stereo not given)
CATEGORY: inactive

COMPOUND: Cc1sc2nc3n(c(=O)c2c1C)N=CN(c1ccccc1)C3
CATEGORY: inactive

COMPOUND: CCCCc1c2c(nc3c1CCC/C3=C\c1ccccc1)C(=O)CCC2
CATEGORY: inactive

COMPOUND: O=C(N/C(=C/c1ccc(Cl)cc1Cl)c1nc2ccccc2s1)c1ccccc1
CATEGORY: inactive

Ask: Which result was noted for this compound in the test: `Cn1c(O)c(C(=O)Nc2cccs2)c(=O)[nH]c1=S`
Result: inactive

Ask: Which result was noted for this compound in the test: `COC(=O)c1cc(=O)nc2sc3cccc(C)c3n12`
Result: inactive

---

Tested on: A498
ASSAY_OVERVIEW: NCI tumour cell line growth inhibition, 48 h
Structures can show the parent of a compound that is named as a salt. Active and inactive are the calls of the source. Rule as the data show it: active = GI50 up to about 1.1 µM and inactive = higher.
API: response.call in T for active, F for inactive

COMPOUND: Cc1ccc(S(=O)(=O)[C@@H](Cl)[C@H]2N=C(Cl)NN=C2c2ccccc2)cc1
CATEGORY: F

Ask: Which result was noted for this compound in the test: `CN(C)C(n1cc2c(c1)-c1ccc(Cl)cc1C(c1ccccc1F)=NC2)n1cc2c(c1)-c1ccc(Cl)cc1C(c1ccccc1F)=NC2`
Result: F

Ask: Which result was noted for this compound in the test: `CCOC(=O)/C=C(/C(=O)OCC)n1cc(C)c(=O)[nH]c1=O`
Result: F

Ask: Which result was noted for this compound in the test: `COc1cc(CSc2ccc(O)cc2)cc(OC)c1OC`
Result: F

Ask: Which result was noted for this compound in the test: CC(C)(C)OC(=O)NCC(=O)NC1c2ccsc2/C(=N/O)[C@H]1O (some centres not stated)
Result: F

Ask: Which result was noted for this compound in the test: O=C(O)C1CC(c2ccc(F)cc2)=Nc2ccc(F)cc2S1 (configuration not stated)
Result: F

Ask: Which result was noted for this compound in the test: `Oc1cc(-c2cccc(Cl)c2)nc2cc3c(cc12)OCO3`
Result: T

Ask: Which result was noted for this compound in the test: `COc1cc2cc[n+](C)c(Cc3ccc(Oc4cc(Cc5c6cc(OC)c(OC)cc6cc[n+]5C)ccc4OC)cc3)c2cc1OC`
Result: F

Ask: Which result was noted for this compound in the test: `Cc1c(N2CCCC2)cc2c(c1NC(=O)c1ccccc1Cl)C(C)(C)CC2(C)C`
Result: F

Ask: Which result was noted for this compound in the test: CN[C@@H]1[C@H](O)[C@H](NC)[C@H]2O[C@@]3(O)C(=O)C[C@@H](C)O[C@H]3O[C@@H]2[C@H]1O [SPECTINOMYCIN SULFATE]
Result: F

Ask: Which result was noted for this compound in the test: `c1ccc(CN2CCc3[nH]c4ccccc4c3C2)cc1`
Result: F

Ask: Which result was noted for this compound in the test: `N#CCCOCN(CO)c1nc(N(CO)COCCC#N)nc(N(CO)COCCC#N)n1`
Result: F

Ask: Which result was noted for this compound in the test: `CC(=O)/C(=N\O)C(=O)NCc1ccccc1`
Result: F

Ask: Which result was noted for this compound in the test: `Cn1c(=O)c2c3ccccc3c(C(=O)c3ccccc3)n2c2ccccc21`
Result: F

Ask: Which result was noted for this compound in the test: `Cn1cnc([N+](=O)[O-])c1Sc1nnnn1-c1ccccc1`
Result: F

Ask: Which result was noted for this compound in the test: CCCCCCCCCC[C@@H](O)[C@@H]1CC[C@@H]([C@@H]2CC[C@@H]([C@@H](O)CCCCCCCCCC[C@H](O)CC3=CC(C)OC3=O)O2)O1 (some centres not stated)
Result: F

Ask: Which result was noted for this compound in the test: C=C1C(=O)OC2CC(C)C(/C=C/C(C)=O)=CCC12 (configuration not stated)
Result: F

Ask: Which result was noted for this compound in the test: `C=C1CC[C@H]2C(C)=CC[C@H]3C(=C)C(=O)O[C@@H]3[C@@H]12`
Result: F

Ask: Which result was noted for this compound in the test: C=CCCCC(C#N)(c1ccccc1)N1CCCC1 (configuration not stated)
Result: F

Ask: Which result was noted for this compound in the test: `COC(=O)C1=CCC[C@H]2[C@@]1(COC(C)=O)CC[C@@H](C)[C@]2(C)CC(=O)c1ccoc1`
Result: F

Ask: Which result was noted for this compound in the test: `COc1ccccc1N/C(=C\C(=O)C(=O)NC12CC3CC(CC(C3)C1)C2)c1ccccc1`
Result: F

Ask: Which result was noted for this compound in the test: `Cc1c(C(=O)C/C(=N/NC(=O)C[n+]2ccccc2)C(=O)Nc2ccccc2)[n+]([O-])c2ccccc2[n+]1[O-]`
Result: F

Ask: Which result was noted for this compound in the test: `C[C@]12CC[C@H]3[C@@H](CC=C4C[C@@H](O)CC[C@@]43C)[C@@H]1C/C(=C/c1ccccc1)[C@@H]2O`
Result: F

Ask: Which result was noted for this compound in the test: `NC(=O)CC[C@H]1C(=O)N=C(N)N1C(=O)OCc1ccccc1`
Result: F
